- measurement.target: T1, recombinant, soluble human ASGR-1 (human, UniProt P07306 62-291)
- T1 construct: biotinylated in the binning assay; also called soluble huASGR-1; Soluble ASGR-1 (Amgen)
- T1 sequence: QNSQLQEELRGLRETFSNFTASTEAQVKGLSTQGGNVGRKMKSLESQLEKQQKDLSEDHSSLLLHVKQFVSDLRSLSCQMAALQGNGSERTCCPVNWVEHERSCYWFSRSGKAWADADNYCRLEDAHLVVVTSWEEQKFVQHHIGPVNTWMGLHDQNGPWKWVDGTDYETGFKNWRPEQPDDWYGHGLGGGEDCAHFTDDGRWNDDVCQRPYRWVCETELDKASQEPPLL
- test.summary: Octet BLI dissociation, pH 7.4 minus calcium
Please go through the items and note down their % Change Compared to pH 7.4 + Calcium.
One number for each entry, in %.

191E10 (antibody, V domains shown, hybridoma mAb) VH: QVQLVESGGGVVQPGRSLRLSCAASGFTFSSYGMHWVRQAPGKGLEWVAVIWYDGSNKNYADSVKGRFTISRDNSKNTLYLQMNSLRAEDTAMYYCARDQGVGYDGLDVWGQGTSVTVSS VL: DIQMTQSPSSLSASVGDRVTITCRASQGIGKYLAWFQQKPGKAPKSLIYAASSLQSGVPSKFSGSGSGTDFTLTISSLQPENFATYYCQQYSTYPLTFGGGTKVEIK: -1
29E2 (antibody, V domains shown, hybridoma mAb) VH: QVQLVESGGGVVQPGRSLRLSCAASGFTFSNCVMHWVRQAPGKGLEWVAVIWYDGSNKYYADSVKGRITISRDNSKNTLYLQMNSLRAEDTAVYYCAREEYSSGWYDYGMDVWGQGTTVTVSS VL: DIQMTQSPSSLSASVGDRVTITCRASQAIRNDLGWYQQRPGKAPKRLIYAASSLQSGVPSRFSGSGSGTEFILTISSLQPEDFATYYCLQHYNYPRSFGQGTKLEIK: 5
4H6 (antibody, V domains shown, hybridoma mAb) VH: QVQLVQSGAEVKKPGASVKVSCKASGYTFTDYYLHWVRQAPGQGLEWMGWIHPNSGGTNYAQKFQGRVTMTRDTSISTAYMGLSSLRSDDTAVYYCARDGTSSFDYWGQGTLVTVSS VL: DIQMTQSPSSVSASVGDRVTITCRASQGISRWLAWYQQKPGKAPKLLIYGASSLQSGVPSRFSGSGSGTDFTLTISSLQPEDFAIYYCQQANSFPFTFGPGTKVDIK: 5
45B4 (antibody, V domains shown, hybridoma mAb) VH: QVQLVESGGGVVQPGRSLRLSCAASGFTFSDCVMHWVRQAPGKGLEWVAVIWYDGSNKYYADSVKGRFTISRDNSKNTLYLQMNSLRAEDTAVYYCARERYSSGLYDYGMDVWGQGTTVTVSS VL: DIQMTQSPSSLSASVGDRVTFTCRASQGIRDDLGWYQQKPGKAPKRLIYAASSLQSGVPSRFSGSGSGTEFTLTISSLQPEDFATYYCLQHYSYPRTFGQGTKVEIK: 4

Quick batch: % Change Compared to pH 7.4 + Calcium for everything below.
1. 4A2 (antibody, V domains shown, hybridoma mAb) VH: QVQLVQSGTEVKKPGASVKVSCKASGYTFTNYDINWVRQATGQGLEWMGWMHPNSGNTGYAQKFQGRVTLTRNTSISTAYMELSSLRSEDTAVYYCASSSGWYYFDYWGQGTLVTVSS VL: DIVMTQSPDSLAVSLGERATINCKSSQSILHSSNNNNYLAWFQQKPGQPPKLLLYWASTRESGVPDRFSGSGSGTDFTLTISSLQPEDVAVYYCQQYYNTPVTFGPGTKVGIK
2. 149D11 (antibody, V domains shown, hybridoma mAb) VH: EVQLLESGGGLVQPGGSLRLSCAASGFTFSSYAMSWVRQAPGKGLEWVSAISGRGGNTFYADSVKGRFTISRDNSKNTLYRQMNSLRAEDTAVYYCAKKDYDYVWGSPYFDYWGQGTLVTVSS VL: DIQMTQSPASVSASVGDRVTITCRASQNISNWLTWYQQKPGKAPKLLIYAASSLQSGVPSRFSGSGSGTDFTLSISSLQPEDFATYYCQQTDSFPFTFGPGTKVDVK
3. 49C1 (antibody, V domains shown, hybridoma mAb) VH: QVQLVESGGGVVQPGRSLRLSCTASGFTFSSYGMHWVRQAPGKGLEWVAVIWYDGSNKYYADSVKGRFTISRDNSKNTLYLQMNSLRAEDTAVYYCARRYSSSWSGGMDVWGQGTTVTVSS VL: DIVMTQTPLSLSVTPGQPASISCKSSQSLLHREGKTYLYWYLQKPGQAPQFLIFEVSHRFSGVPDRFSGSGSGTDFTLKISRVEAEDVGVYYCMQSIQIPITLGQGTRLEIK
4. 227C1 (antibody, V domains shown, hybridoma mAb) VH: QVQLVQSGAEVKKPGASVKVSCKASGYTFTGYYTHWVRQAPGQGLEWMGWINPYSGGTNYAQKFQGRVTMTRDTSISTAYMELSRLRFDDTAVYYCARDWGGYSSYYYGMDVWGQGTTVTVSS VL: DIVMTQTPLSLSVTPGQPASISCKSSQSLLHSDGKTFLYWYLQKPGQPPQLLIYEISNRFSGVPDRFSGSGSGTDFTLKISRVEAEDVGIYYCMQSTQLPRTFGQGTKVEIK
5. 59F2 (antibody, V domains shown, hybridoma mAb) VH: EVQLVESGGGLVQPGGSLRLSCGASGFTFSSYSMNWVRQAPGKGLEWVSYISGSSNIIYYTDSVKGRFTISRDNAKNSLYLQMNSLRDEDTAVYYCARADTPMVLYFYGMDVWGQGTTVTVSS VL: SYELTQPPSVSVSPGQTASITCSGDKLGDKYASWYQQRPGQSPVLVIYQDNKRPSGIPERFSGSNSGNTATLTISGTQAMDEADYYCQAWDNNTVVFGGGTKLTVL
6. 7E11 (antibody, V domains shown, hybridoma mAb) VH: QVQLVESGGGVVQPGRSLRLSCAASGFTFSSFGMHWVRQAPGKGLEWVAIIWHDGSNKYYADSVKGRFTISRDNSNNTLYLQMSSLRAEDTAVYYCARDLSMGGMDVWGQGTTVTVSS VL: DIQMTQSPSSLSASVGDRVTIACRASQNIISYLNWYQQKPGKAPKFLIYTASSLQSGVPSRFSGSGSGTDFTLTISSLQPEDFAIYYCQQTYSTPLTFGGGTKVEIK

1: 1; 2: 11; 3: 72; 4: 100; 5: 48; 6: 9
